# system name: Arginase-1 (Homo sapiens)
# Sequence (P05089 whole entry): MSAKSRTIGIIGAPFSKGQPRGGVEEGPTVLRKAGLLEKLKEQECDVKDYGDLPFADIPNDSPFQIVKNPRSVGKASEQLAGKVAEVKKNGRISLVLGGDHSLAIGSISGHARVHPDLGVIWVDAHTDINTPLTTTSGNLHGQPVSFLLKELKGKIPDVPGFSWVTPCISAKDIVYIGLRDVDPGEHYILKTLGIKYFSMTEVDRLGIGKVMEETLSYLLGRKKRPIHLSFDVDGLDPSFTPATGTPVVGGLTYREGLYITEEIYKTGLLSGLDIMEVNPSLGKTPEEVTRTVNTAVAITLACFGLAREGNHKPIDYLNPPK
# protocol notes: Inhibition of human recombinant arginase 1 expressed in Escherichia coli using thioarginine by Ellman's assay
measured metric: IC50 (nM)
Answers are plain numbers, in nM.

Q) Entry N[C@H]1CCN[C@@](CCCCB(O)O)(C(=O)O)C1 has what IC50?
A) 30
